# Test system: Bel-7404 (human liver carcinoma) cells
# procedure details: MTT antiproliferative assay, Bel-7404
# Type: cell-based
# experimental conditions: Homo sapiens, BEL-7404; MTT assay; mean of three independent determinations; read-out: Cytotoxicity IC50 Bel-7404
measured attribute: IC50

Solved cases below.
molecule	IC50
CC(=O)Oc1ccc2c(c1)CCC1C2CCC2(C)/C(=N/NC(N)=S)CCC12 (centres unmarked)	> 200 µM
CC12CCC3c4ccc(O)cc4CCC3C1CCC2=NNC(N)=S (stereo not drawn) [Compound 2, 3β-Hydroxyestron-17-thiosemicarbazone]	19 µM
COC(=O)CCC(C)C1CCC2C3CCC4CC(=NNC(N)=S)CCC4(C)C3CC(=O)C12C (centres unmarked)	> 200 µM
COC(=O)CCC(C)C1CCC2C3C(O)CC4CC(=NNC(N)=S)CCC4(C)C3CCC12C (centres unmarked)	> 200 µM

Lab note: need IC50 for COC(=O)CCC(C)C1CCC2C3C(=O)CC4CC(=NNC(N)=S)CCC4(C)C3CCC12C (centres unmarked) on Bel-7404 (human liver carcinoma) cells, anyone have it?
> 200 µM
